Record: IC50 reported on Epithelial discoidin domain-containing receptor 1 (Homo sapiens, UniProt Q08345).
Sequence (Q08345 whole entry, the tested form may be a part): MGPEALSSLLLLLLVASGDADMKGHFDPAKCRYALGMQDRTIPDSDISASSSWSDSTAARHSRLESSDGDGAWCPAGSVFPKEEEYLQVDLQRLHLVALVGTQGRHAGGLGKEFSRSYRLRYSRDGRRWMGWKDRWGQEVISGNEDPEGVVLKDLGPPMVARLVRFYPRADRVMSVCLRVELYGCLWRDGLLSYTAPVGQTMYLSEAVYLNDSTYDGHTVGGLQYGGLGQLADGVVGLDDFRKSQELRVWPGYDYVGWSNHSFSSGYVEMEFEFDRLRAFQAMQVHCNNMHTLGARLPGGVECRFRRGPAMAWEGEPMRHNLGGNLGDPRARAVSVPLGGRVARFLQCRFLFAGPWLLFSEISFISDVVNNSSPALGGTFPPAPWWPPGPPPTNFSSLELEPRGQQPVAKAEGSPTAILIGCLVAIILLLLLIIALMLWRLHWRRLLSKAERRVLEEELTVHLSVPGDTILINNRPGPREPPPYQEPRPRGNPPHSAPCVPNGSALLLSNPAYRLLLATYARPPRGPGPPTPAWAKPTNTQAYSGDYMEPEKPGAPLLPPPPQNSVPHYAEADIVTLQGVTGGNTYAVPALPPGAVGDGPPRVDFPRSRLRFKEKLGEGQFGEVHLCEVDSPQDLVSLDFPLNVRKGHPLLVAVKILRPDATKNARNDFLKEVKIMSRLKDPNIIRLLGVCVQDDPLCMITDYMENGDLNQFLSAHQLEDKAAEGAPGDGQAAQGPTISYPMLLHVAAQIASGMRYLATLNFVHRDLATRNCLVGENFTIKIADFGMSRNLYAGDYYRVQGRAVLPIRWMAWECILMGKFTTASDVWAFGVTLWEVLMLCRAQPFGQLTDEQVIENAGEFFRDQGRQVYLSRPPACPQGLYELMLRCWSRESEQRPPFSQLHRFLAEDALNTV
Your answer is read as nM, so omit the unit and give the number.

Report IC50 on Epithelial discoidin domain-containing receptor 1 (Homo sapiens, UniProt Q08345) for this entry: Cc1ccc(NC(=O)c2ccc(CN3CCCCC3)c(C(F)(F)F)c2)cc1Oc1ccc(-c2n[nH]c3ncnc(N)c23)cc1 975

Report IC50 on Epithelial discoidin domain-containing receptor 1 (Homo sapiens, UniProt Q08345) for this entry: Cc1ccc(NC(=O)c2ccc(CN3CCOCC3)c(Br)c2)cc1Oc1ccc(-c2n[nH]c3ncnc(N)c23)cc1 2470

Report IC50 on Epithelial discoidin domain-containing receptor 1 (Homo sapiens, UniProt Q08345) for this entry: Cc1ccc(NC(=O)c2ccc(CN3CCCC3)c(C(F)(F)F)c2)cc1Oc1ccc(-c2n[nH]c3ncnc(N)c23)cc1 1190

Report IC50 on Epithelial discoidin domain-containing receptor 1 (Homo sapiens, UniProt Q08345) for this entry: Cc1ccc(NC(=O)c2ccc(CN3CCN(C)CC3)c(C(F)(F)F)c2)cc1Oc1ccc(-c2n[nH]c3ncnc(N)c23)cc1 44

Report IC50 on Epithelial discoidin domain-containing receptor 1 (Homo sapiens, UniProt Q08345) for this entry: Cc1ccc(NC(=O)c2ccc(CN3CCOCC3)c(F)c2)cc1Oc1ccc(-c2n[nH]c3ncnc(N)c23)cc1 24400
